The reported measurements were obtained from patent US20260297085A1.

Catalogue of pIC50 readings, one per entry.
tested-on: human JAK2 kinase domain (JH1) (Homo sapiens)
Construct: recombinantly generated catalytic kinase (also known as JH1) domain of human JAK1, JAK2, JAK3 and TYK2
assay-details: JH1 biochemical assay for JAK2 (ADP-Glo kinase assay, recombinant JH1 catalytic domain, JAK3-974 peptide, 15 μM ATP)
details: JAK2 JH1, ADP-Glo
pIC50: −log10 of the molar value. Counter-ions that a name gives are not always drawn.

Some solved cases for reference:
C[C@@H]1CN(c2ccnc3cc(-c4cnn(C56CC(C5)C6)c4)oc23)C(=O)[C@]1(C#N)C1CC1 [Example 344]    6.00 to 7.00
C[C@@H]1CN(c2ccnn3cc(-c4cnn([C@H]5COCC(F)(F)C5)c4)cc23)C(=O)[C@]1(C#N)C1CC1 (single isomer, unassigned) [Example 327]    > 7.00

Shifting focus to the compound that follows.
Just so you know, measured pIC50 for C[C@@H]1CN(c2nc(-c3cnc(N(C)C)nc3)cn3nccc23)C(=O)[C@]1(C#N)C1CC1 [Example 264, trifluoroacetate] came out at 5.30 to 6.00

---

Catalogue of IC50 readings, one per entry.
tested-on: JAK1 kinase activity on STAT3 in TF1 cells (Homo sapiens, UniProt P23458)
Sequence (P23458 whole entry): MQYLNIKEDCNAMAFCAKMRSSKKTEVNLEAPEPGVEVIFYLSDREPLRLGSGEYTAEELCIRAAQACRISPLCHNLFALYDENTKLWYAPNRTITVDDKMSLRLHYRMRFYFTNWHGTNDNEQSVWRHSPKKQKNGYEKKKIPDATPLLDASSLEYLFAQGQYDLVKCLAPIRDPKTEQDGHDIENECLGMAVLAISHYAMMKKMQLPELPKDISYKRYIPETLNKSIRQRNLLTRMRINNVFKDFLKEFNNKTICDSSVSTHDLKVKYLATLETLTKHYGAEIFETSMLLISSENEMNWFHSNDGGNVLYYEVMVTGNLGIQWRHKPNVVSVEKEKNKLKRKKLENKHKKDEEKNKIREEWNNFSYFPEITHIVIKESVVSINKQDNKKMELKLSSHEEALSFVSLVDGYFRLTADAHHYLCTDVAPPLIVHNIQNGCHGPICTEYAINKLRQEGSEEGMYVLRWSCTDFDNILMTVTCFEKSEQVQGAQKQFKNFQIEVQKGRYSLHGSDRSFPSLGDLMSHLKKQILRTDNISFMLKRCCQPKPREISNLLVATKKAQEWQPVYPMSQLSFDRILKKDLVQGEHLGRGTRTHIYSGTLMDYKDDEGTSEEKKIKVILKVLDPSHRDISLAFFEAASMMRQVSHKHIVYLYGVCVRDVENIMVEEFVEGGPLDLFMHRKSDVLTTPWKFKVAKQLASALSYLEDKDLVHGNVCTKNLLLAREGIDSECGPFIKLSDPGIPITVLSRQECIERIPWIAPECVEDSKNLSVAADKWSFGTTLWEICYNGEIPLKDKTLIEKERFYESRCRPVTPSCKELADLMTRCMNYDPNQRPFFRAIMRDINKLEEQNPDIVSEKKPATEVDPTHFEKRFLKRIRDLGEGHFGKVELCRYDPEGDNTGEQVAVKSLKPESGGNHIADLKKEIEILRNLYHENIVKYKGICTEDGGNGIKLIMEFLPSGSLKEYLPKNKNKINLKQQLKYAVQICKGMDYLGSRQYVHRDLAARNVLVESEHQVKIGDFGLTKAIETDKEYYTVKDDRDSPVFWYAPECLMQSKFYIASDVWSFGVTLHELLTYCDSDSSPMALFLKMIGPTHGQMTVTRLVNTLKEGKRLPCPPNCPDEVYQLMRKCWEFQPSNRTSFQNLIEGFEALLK
assay-details: pSTAT3 cell assay (MSD; TF1 cells, 30 ng/mL IL-6 stimulation)
details: 30 ng/mL IL-6, 15 minutes
Counter-ions that a name gives are not always drawn.

Some solved cases for reference:
C[C@@H]1CN(c2ccnn3cc(-c4cnc5cc(C#N)ccn45)cc23)C(=O)[C@]1(C#N)C1CC1 [Example 103, trifluoroacetate]    > 10 µM
C[C@@H]1CN(c2ccnn3cc(-c4cccc5cncn45)cc23)C(=O)[C@]1(C#N)C1CC1 [Example 128, trifluoroacetate]    > 10 µM
C[C@@H]1CN(c2ccnn3cc(-c4cccc(C(F)F)n4)cc23)C(=O)[C@]1(C#N)C1CC1 [Example 135, trifluoroacetate]    1 to 5 µM
CCn1cc(-n2nc(N3C[C@@H](C)[C@@](C#N)(C4CC4)C3=O)c3ccncc32)cn1    1 to 5 µM
C[C@@H]1CN(c2ccnn3cc(-c4cnn(C)c4)nc23)C(=O)[C@]1(C#N)C1CC1    5 to 10 µM

Param item: CNC(=O)c1ccc(-c2cn3nccc3c(N3C[C@@H](C)[C@@](C#N)(C4CC4)C3=O)n2)cn1 [Example 227, trifluoroacetate] ; param system: JAK1 kinase activity on STAT3 in TF1 cells (Homo sapiens, UniProt P23458); output IC50: 0.1 to 1 µM

Param item: CCn1cc(-c2cn3nccc3c(N3C[C@@H](C)[C@@](C#N)(C4CC4)C3=O)n2)cn1 ; param system: JAK1 kinase activity on STAT3 in TF1 cells (Homo sapiens, UniProt P23458); output IC50: 0.1 to 1 µM

---

tested-on: JAK1 kinase activity on STAT3 in TF1 cells (Homo sapiens)
assay-details: pSTAT3 cell assay (MSD; TF1 cells, 30 ng/mL IL-6 stimulation)
details: 30 ng/mL IL-6, 15 minutes
pIC50: −log10 of the molar value. Where a name gives a salt, the structure may show the parent alone.
metric: pIC50

C[C@@H]1CN(c2nc(-c3cnn(C)c3)cn3ncc(Cl)c23)C(=O)[C@]1(C#N)C1CC1    < 5.00
C[C@@H]1CN(c2cc(-c3cnn(C)c3)cn3nccc23)C(=O)[C@]1(C#N)C1CC1    < 5.00
C[C@@H]1CN(c2nc(-c3ccc(O)nc3)cn3nccc23)C(=O)[C@]1(C#N)C1CC1 [Example 267, trifluoroacetate]    6.00 to 7.00

Shifting focus to the compound that follows.
Just so you know, measured pIC50 for C[C@@H]1CN(c2nc(-c3ccc4c(cnn4C)c3)cn3nccc23)C(=O)[C@]1(C#N)C1CC1 [Example 225, trifluoroacetate] came out at 5.30 to 6.00

---

tested-on: human JAK2 kinase domain (JH1) (Homo sapiens, UniProt O60674)
Construct: recombinantly generated catalytic kinase (also known as JH1) domain of human JAK1, JAK2, JAK3 and TYK2
assay-details: JH1 biochemical assay for JAK2 (ADP-Glo kinase assay, recombinant JH1 catalytic domain, JAK3-974 peptide, 15 μM ATP)
details: JH1 kinase domain, ADP-Glo
Counter-ions that a name gives are not always drawn.
metric: IC50

Some solved cases for reference:
C[C@@H]1CN(c2ccnn3cc(-c4cncc(OC(F)F)c4)cc23)C(=O)[C@]1(C#N)C1CC1    1 to 5 µM
CCc1ncccc1-c1cc2c(N3C[C@@H](C)[C@@](C#N)(C4CC4)C3=O)ccnn2c1 [Example 178, trifluoroacetate]    > 10 µM
C[C@@H]1CN(c2ccnn3cc(-c4nc(C#N)cs4)cc23)C(=O)[C@]1(C#N)C1CC1 [Example 114, trifluoroacetate]    > 10 µM

Param item: C[C@@H]1CN(c2ccnn3cc(-c4nc5ccccn5n4)cc23)C(=O)[C@]1(C#N)C1CC1 [Example 108, trifluoroacetate] ; param system: human JAK2 kinase domain (JH1) (Homo sapiens, UniProt O60674); output IC50: > 10 µM

Param item: C[C@@H]1CN(c2ccnn3cc(-c4ccc(OC(F)F)nc4)cc23)C(=O)[C@]1(C#N)C1CC1 ; param system: human JAK2 kinase domain (JH1) (Homo sapiens, UniProt O60674); output IC50: 1 to 5 µM

Param item: COc1cccc(-c2cc3c(N4C[C@@H](C)[C@@](C#N)(C5CC5)C4=O)ccnn3c2)n1 [Example 143, trifluoroacetate] ; param system: human JAK2 kinase domain (JH1) (Homo sapiens, UniProt O60674); output IC50: 1 to 5 µM

Param item: C[C@@H]1CN(c2ccnn3cc(-c4ccc(N(C)C)cn4)cc23)C(=O)[C@]1(C#N)C1CC1 [Example 134, trifluoroacetate] ; param system: human JAK2 kinase domain (JH1) (Homo sapiens, UniProt O60674); output IC50: 0.1 to 1 µM

---

Catalogue of pIC50 readings, one per entry.
tested-on: JAK2 kinase activity on STAT5 in TF1 cells (Homo sapiens, UniProt O60674)
Sequence (O60674 whole entry): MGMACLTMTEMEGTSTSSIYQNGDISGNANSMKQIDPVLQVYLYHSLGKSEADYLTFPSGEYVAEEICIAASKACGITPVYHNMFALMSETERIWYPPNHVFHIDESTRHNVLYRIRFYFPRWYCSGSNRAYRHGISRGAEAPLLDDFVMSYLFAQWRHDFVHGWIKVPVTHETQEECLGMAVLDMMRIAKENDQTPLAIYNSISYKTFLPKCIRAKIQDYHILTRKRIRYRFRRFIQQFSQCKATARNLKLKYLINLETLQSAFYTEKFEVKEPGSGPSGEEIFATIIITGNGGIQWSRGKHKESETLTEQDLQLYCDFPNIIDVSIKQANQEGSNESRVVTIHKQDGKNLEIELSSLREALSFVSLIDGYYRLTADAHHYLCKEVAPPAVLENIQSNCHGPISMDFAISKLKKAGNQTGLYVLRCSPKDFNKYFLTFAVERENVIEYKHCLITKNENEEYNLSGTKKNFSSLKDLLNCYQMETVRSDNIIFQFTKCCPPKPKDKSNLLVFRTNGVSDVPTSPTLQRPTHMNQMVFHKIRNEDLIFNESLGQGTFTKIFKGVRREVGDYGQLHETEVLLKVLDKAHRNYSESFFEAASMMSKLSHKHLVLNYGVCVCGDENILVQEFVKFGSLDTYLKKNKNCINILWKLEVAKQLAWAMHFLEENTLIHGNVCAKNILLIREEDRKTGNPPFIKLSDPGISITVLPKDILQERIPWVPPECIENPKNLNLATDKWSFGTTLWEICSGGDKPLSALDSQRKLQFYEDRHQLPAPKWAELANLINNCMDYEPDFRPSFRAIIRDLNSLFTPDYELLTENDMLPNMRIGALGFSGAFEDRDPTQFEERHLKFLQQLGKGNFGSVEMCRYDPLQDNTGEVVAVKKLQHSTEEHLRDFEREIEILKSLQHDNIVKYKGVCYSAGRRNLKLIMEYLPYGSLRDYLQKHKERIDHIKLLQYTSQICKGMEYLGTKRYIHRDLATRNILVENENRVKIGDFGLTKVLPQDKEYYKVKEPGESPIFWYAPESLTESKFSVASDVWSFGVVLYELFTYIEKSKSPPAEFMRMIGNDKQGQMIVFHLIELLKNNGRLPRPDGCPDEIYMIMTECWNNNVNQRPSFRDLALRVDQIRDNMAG
assay-details: pSTAT5 cell assay (MSD; TF1 cells, 30 ng/mL IL-3 stimulation)
details: 30 ng/mL IL-3, 15 minutes
pIC50: −log10 of the molar value. Where a name gives a salt, the structure may show the parent alone.

Some solved cases for reference:
C[C@@H]1CN(c2nc(-c3cnn(C4CC(C#N)C4)c3)cc3ncsc23)C(=O)[C@]1(C#N)C1CC1 (stereo partly drawn)    > 7.00
C[C@@H]1CN(c2ccnn3cc(-c4ccnc(C#N)c4)cc23)C(=O)[C@]1(C#N)C1CC1    < 5.00
C[C@@H]1CN(c2nc(-c3ccnc(F)c3)cn3nccc23)C(=O)[C@]1(C#N)C1CC1 [Example 237, trifluoroacetate]    5.00 to 5.30
C[C@@H]1CN(c2ccnn3cc(-c4cn(C)cn4)cc23)C(=O)[C@]1(C#N)C1CC1 [Example 111, trifluoroacetate]    < 5.00
C[C@@H]1CN(c2nc(-c3cnc4c(c3)CCC(=O)N4)cn3nccc23)C(=O)[C@]1(C#N)C1CC1    5.30 to 6.00
CC(=O)Nc1cc(-c2cn3nccc3c(N3C[C@@H](C)[C@@](C#N)(C4CC4)C3=O)n2)ccn1    5.30 to 6.00

Just so you know, measured pIC50 for C[C@@H]1CN(c2nc(-c3cnn(CC4(C#N)CC4)c3)cn3ncc(F)c23)C(=O)[C@]1(C#N)C1CC1 came out at 5.30 to 6.00

Just so you know, measured pIC50 for C[C@@H]1CN(c2ccnn3cc(-c4cnn(CC#N)c4)cc23)C(=O)[C@]1(C#N)C1CC1 came out at 5.30 to 6.00

Just so you know, measured pIC50 for COc1cncc(-c2cn3nccc3c(N3C[C@@H](C)[C@@](C#N)(C4CC4)C3=O)n2)c1 [Example 244, trifluoroacetate] came out at < 5.00

Just so you know, measured pIC50 for C[C@@H]1CN(c2nc(-c3cnn(CC#N)c3)cn3ncc(F)c23)C(=O)[C@]1(C#N)C1CC1 came out at 5.30 to 6.00

Just so you know, measured pIC50 for C[C@@H]1CN(c2nc(-c3cnn(C)c3)cn3ncc(F)c23)C(=O)[C@]1(C#N)C1CC1 came out at 5.30 to 6.00

Just so you know, measured pIC50 for C[C@@H]1CN(c2nc(-c3ccc4c(cnn4C)c3)cn3nccc23)C(=O)[C@]1(C#N)C1CC1 [Example 225, trifluoroacetate] came out at 5.30 to 6.00

Just so you know, measured pIC50 for C[C@@H]1CN(c2ccnn3cc(-c4cnc5[nH]ccc5c4)cc23)C(=O)[C@]1(C#N)C1CC1 came out at 5.00 to 5.30

Just so you know, measured pIC50 for COc1cc(-c2cc3c(N4C[C@@H](C)[C@@](C#N)(C5CC5)C4=O)ccnn3c2)ccn1 came out at < 5.00

Just so you know, measured pIC50 for Cc1nn(C)cc1-c1cc2c(N3C[C@@H](C)[C@@](C#N)(C4CC4)C3=O)ccnn2c1 came out at 5.00 to 5.30
